Recorded kon for the following binders
Target: T1, recombinant human SDF-1α (Peprotech) (human, UniProt P48061 22-89)
T1 construct: Bought protein (Peprotech, cat. 300-28A); also called rh SDF-1α; Stromal cell-Derived Factor-1
T1 sequence (P48061 22-89 limits assumed): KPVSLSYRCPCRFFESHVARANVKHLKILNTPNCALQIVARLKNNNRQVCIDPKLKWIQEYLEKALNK
Assay: SPR (Biacore), antibody amine-coupled to CM5 chip, SDF-1 flowed at 5-40 nM right after dilution to maximize the dimer population, 1:1 Langmuir fit
Your answer is read as M⁻¹ s⁻¹, so omit the unit and give the number.

>  <binder>
1H2 human monoclonal antibody (antibody, V domains shown, Whole human monoclonal antibody with kappa light chain (VK L18), from a KM Mouse; also called B1/H2; B1H2) VH: QVQLVQSGAEVKKPGASVKVSCKVSGYTFTKLSVHWVRQAPGKGLEWMGSFDPEDGETIYSQRFQGRVTMTEDTSTDTAYMELSSLRSEDTAVYYCATEGQWLVAYYGMDVWGQGTMVTVSS VL: EIVLTQSPSSLSASVGDRVTITCRASQGISSALAWYQQKPGKAPKLLIYDASSLESGVPSRFSGSGSGTDFTLTISSLQPEDFATYYCQQFNSYPLTFGGGTKVEIK

>  <reading>
600000

$$$$
>  <binder>
2A5 human monoclonal antibody (antibody, V domains shown, Whole human monoclonal antibody with kappa light chain (VK L18), from a HuMAb Mouse; also called Z2/A5; Z2A5) VH: QVQLVQSGGGLVQPGGSLRLSCAASGFTFSSYWMSWVRQAPGKGLEWVANMNQDGSEKYYVDSVKGRFTISRDNAKNSLYLQMNSLRAEDTAVYYCARDLTGPYYYDYYGMDVWGQGTTVTVSS VL: DIQMIQSPSSLSASVGDRVTITCRASQGISSALAWYQQKPGKAPKLLIYDASSLESGVPSRFSGSGSGTDFTLTISSLQPEDFATYYCQQFNSYPRTFGQGTKVEIK

>  <reading>
2.9e+06

$$$$
>  <binder>
1C6 human monoclonal antibody (antibody, V domains shown, Whole human monoclonal antibody with kappa light chain (VK L18), from a HuMAb Mouse; also called Z1/C6; mAb Z group antibody) VH: EVQLVESGRGLVQPGGSLRLSCAASGFTFSSYWMSWVRQAPGKGLEWVANMNQDGSEKYYVDSVKGRFTISRDNAKNSLYLQMNSLRAEDTAVYYCARDLTGPYYYDYYGMDVWGQGTTVTVSS VL: AIRMTQSPSSVSASVGDRVTITCRASQGISSALAWYQQTPGKAPKLLIYDASSLESGVPSRFSGSGSGTDFTLTISSLQPEDFATYYCQQFNSYPRTFGQGTKVEIK

>  <reading>
1.4e+06

$$$$

Next up:
Problem: Which measured kon value corresponds to 1D3 human monoclonal antibody (antibody, V domains shown, Whole human monoclonal antibody with kappa light chain (VK L18), from a KM Mouse; also called B1/D3; mAb B group antibody) VH: EVQLVQSGAEVKKPGASVKVSCKVSGYTLTKLSVHWVRQAPGKGLEWMGSFDPEDGETIYSQRFQGRVTMTEDTSTDTAYMELTSLRSEDTAVYYCATEGQWLVAYYGMDVWGQGTTVTVSS VL: EIVLTQSPSSLSASVGDRVTITCRASQGISSALAWYQQKPGKAPKLLIYDASSLESGVPSRFSGSGSGTDFTLTISSLQPEDFATYYCQQFNSYPLTFGGGTKVEIK ?
Solution: 800000

The values you see were collected from patent US20100158902A1.
